TESTED_SYSTEM: Proteasome Macropain subunit MB1 (Homo sapiens)
Sequence (whole entry): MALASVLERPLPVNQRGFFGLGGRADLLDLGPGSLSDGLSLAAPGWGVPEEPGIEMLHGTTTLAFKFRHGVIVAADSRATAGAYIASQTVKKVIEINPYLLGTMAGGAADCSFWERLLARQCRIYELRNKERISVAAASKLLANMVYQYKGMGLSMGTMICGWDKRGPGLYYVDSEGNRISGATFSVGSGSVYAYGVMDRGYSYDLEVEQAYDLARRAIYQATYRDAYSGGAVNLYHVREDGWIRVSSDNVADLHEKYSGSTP
TEST: Inhibition of catalytic activity of constitutive proteasome 20s subunit beta5 in human Raji cells assessed as residual activity at 0.01 uM incubated for 1 hr by BODIPY(TMR)-NC-005-VS probe based activity based protein profiling assay relative to control
Type: cell-based
READOUT_NAME: Activity (%)

Guide cases for Activity, answers given:
INSERT INTO assay_data (compound, observed_result) VALUES
  ('COc1ccc(C[C@H](NC(=O)[C@H](Cc2cccc3ccccc23)NC(=O)CN2CCOCC2)C(=O)N[C@@H](CC(C)C)C(=O)[C@@]2(C)CO2)cc1', 30),
  ('CC(C)C[C@H](NC(=O)[C@H](Cc1ccccc1)NC(=O)[C@H](CC1CCCC2CCCCC21)NC(=O)[C@H](Cc1ccccc1)N=[N+]=[N-])C(=O)[C@@]1(C)CO1 (stereo not given in full)', 40);

[1] CC(C)C[C@H](NC(=O)[C@H](Cc1ccccc1)NC(=O)[C@H](Cc1ccc2ccccc2c1)NC(=O)[C@H](Cc1ccccc1)N=[N+]=[N-])C(=O)[C@@]1(C)CO1
[2] CC(C)C[C@H](NC(=O)[C@H](Cc1ccccc1)NC(=O)[C@@H](NC(=O)[C@H](Cc1ccccc1)N=[N+]=[N-])c1ccccc1)C(=O)[C@@]1(C)CO1
Q. Determine, for 1 and 2 , which has the greater value of Activity. Return value: the label identifying the chosen record.
A. 2
(2: 44%, 1: 14%)
